Entries and their koff
- system tested: T1, human PD-L1 (construct not stated) (human, UniProt Q9NZQ7 19-239, limits assumed)
- T1 construct: also called B7-H1 (PD-L1); PD-L1 protein
- T1 sequence (Q9NZQ7 19-239 limits assumed): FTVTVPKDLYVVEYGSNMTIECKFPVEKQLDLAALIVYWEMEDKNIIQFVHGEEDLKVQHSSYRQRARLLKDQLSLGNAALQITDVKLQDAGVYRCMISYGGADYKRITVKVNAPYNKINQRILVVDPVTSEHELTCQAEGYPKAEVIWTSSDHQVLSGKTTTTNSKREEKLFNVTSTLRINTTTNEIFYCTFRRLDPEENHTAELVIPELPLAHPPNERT
- experiment notes: BLI Octet Red 96, affinity ranking
Express it in s⁻¹; write the number only.

Check out these entries, answers already filled in.
In plain terms, Hu1210-3 (antibody, V domains shown, Hu1210 VH.1b x Vk.1; human gamma 1 / kappa constant domains) VH: EVQLVESGGGLVKPGGSLRLSCAASGFTFSSYDMSWVRQAPGKSLEWVATISDGGGYIYYSDSVKGRFTISRDNAKNSLYLQMNSLRAEDTAVYICAREFGKRYALDYWGQGTTVTVSS VL: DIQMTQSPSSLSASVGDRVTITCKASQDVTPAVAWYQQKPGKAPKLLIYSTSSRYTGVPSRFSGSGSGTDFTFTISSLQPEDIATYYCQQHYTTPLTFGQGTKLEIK has a documented koff of 0.000228

The binder listed as Hu1210-19 (antibody, V domains shown, Hu1210 VH.3a x Vk.1a; human gamma 1 / kappa constant domains) VH: EVQLLESGGGLVQPGGSLRLSCAASGFTFSSYDMSWVRQAPGKSLEWVATISDGGGYIYYSDSVKGRFTISRDNSKNTLYLQMNSLRAEDTAVYICAREFGKRYALDYWGQGTTVTVSS VL: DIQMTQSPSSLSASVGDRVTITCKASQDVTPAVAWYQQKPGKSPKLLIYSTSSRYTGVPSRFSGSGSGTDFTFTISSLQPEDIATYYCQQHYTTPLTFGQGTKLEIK has a reported koff of 0.000225

Consider the additional binder presented here.
# binder Hu1210-5 (antibody, V domains shown, Hu1210 VH.2a x Vk.1; human gamma 1 / kappa constant domains) VH: EVQLVESGGGLVKPGGSLRLSCAASGFTFSSYDMSWIRQAPGKGLEWVATISDGGGYIYYSDSVKGRFTISRDNAKNSLYLQMNSLRAEDTAVYYCAREFGKRYALDYWGQGTTVTVSS VL: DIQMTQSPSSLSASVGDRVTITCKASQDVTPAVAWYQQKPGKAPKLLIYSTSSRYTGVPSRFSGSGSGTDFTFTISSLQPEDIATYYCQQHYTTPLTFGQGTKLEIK ; its koff = 0.000383
